target: TEAD1 TAZ (amino acids 13-57) (Homo sapiens); assay: TEAD1-TAZ HTRF (TR-FRET) protein-protein interaction assay; conditions: TEAD1-TAZ HTRF, TR-FRET 665 nm/615 nm; read-out: TEAD1 TAZ HTRF combined: EC50
Sequence (P28347 167-426 limits assumed): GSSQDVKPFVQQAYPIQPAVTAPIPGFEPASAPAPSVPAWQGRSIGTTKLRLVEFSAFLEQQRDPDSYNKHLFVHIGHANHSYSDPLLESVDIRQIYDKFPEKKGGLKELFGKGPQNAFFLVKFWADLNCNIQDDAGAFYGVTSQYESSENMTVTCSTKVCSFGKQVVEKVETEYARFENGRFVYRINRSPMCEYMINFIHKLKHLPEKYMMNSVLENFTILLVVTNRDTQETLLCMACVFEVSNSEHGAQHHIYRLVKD
Assay Endpoint: EC50 (nM)

CC(C)(C)c1ccc(COc2cc(=O)n3nc(-c4cnccn4)c(C(=O)N4CC(CF)C4)c3[nH]2)cc1; 70
O=C(c1c(C2CNCCO2)nn2c(=O)cc(-c3ccc(C4CCCCC4)cc3)[nH]c12)N1CC(CF)C1 (single isomer, unassigned) [Enantiomer B, Example 63]; 140
Cc1cncc(-c2nn3c(=O)cc(-c4ccc(C5CCCCC5)cc4)[nH]c3c2C(=O)N2CC(CF)C2)n1; 60

a = CCCCCCCCCc1cc(=O)n2nc(-c3nccnc3C)c(C(=O)N3C[C@H](CF)[C@@H]3C)c2[nH]1
b = Cc1nccnc1-c1nn2c(=O)cc(-c3ccc(C4CCCCC4)cc3)[nH]c2c1C(=O)N1C[C@@H](CF)[C@H]1C (single isomer, unassigned) [Isomer A, Example 41]
Ask | Between a and b , whose measured EC50 reads higher? Selection: enter the item's label.
Reply | b

I = Cc1nccnc1-c1nn2c(=O)cc(-c3ccc(-c4ccccc4)cc3)[nH]c2c1C(=O)N1CC(CF)C1
II = Cc1nccnc1-c1nn2c(=O)cc(-c3ccc(C4(F)CCCCC4)cc3)[nH]c2c1C(=O)N1CC(CF)C1
III = Cc1nccnc1-c1nn2c(=O)cc(-c3ccc(CC4CCCC4)cc3)[nH]c2c1C(=O)N1C[C@@H](CF)[C@H]1C (single isomer, unassigned) [Isomer A, Example 42]
Ask | Sort these compounds on EC50 so the largest reading comes first. List labels; respect the requested ordering.
Reply | II, III, I

I = CCN(C)C(=O)c1nn2c(=O)cc(-c3ccc(C4CCCCC4)cc3)[nH]c2c1C(=O)N1CC(CF)C1
II = C[C@@H]1[C@H](CF)CN1C(=O)c1c(-c2cnccn2)nn2c(=O)cc(-c3ccc(C4CCCCC4)cc3)[nH]c12 (single isomer, unassigned) [Isomer B, Example 39]
Ask | Between I and II , whose measured EC50 reads higher? Selection: enter the item's label.
Reply | II
(II: 170 nM, I: 80 nM)
